# measuredOn: Prostaglandin G/H synthase 1 (Homo sapiens, UniProt P23219)
# Sequence (P23219 whole entry): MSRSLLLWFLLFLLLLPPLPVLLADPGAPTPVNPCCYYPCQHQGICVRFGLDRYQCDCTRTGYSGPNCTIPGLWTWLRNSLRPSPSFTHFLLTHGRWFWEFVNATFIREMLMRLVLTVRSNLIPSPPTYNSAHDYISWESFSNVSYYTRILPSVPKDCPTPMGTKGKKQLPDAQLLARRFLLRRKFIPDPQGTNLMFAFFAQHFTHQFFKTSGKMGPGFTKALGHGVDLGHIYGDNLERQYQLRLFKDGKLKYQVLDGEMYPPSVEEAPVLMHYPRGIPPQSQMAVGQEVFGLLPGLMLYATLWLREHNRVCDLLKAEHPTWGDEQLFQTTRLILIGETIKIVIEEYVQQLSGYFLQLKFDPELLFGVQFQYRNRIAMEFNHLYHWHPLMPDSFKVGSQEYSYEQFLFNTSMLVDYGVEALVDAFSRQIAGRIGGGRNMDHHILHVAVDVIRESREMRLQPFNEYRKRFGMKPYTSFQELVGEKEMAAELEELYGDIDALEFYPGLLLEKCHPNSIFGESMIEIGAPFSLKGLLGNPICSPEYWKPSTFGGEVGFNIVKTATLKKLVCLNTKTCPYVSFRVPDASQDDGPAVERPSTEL
# assayNotes: Inhibition of human Prostaglandin G/H synthase 1 at 10 ug/mL expressed as mean percent inhibition of control PGE-2 production
quantityKind: inhibition

Solved entries:
CN1C(C(=O)Nc2ccccn2)=C(O)c2ccc(F)cc2S1(=O)=O = 74%
CN1C(C(=O)Nc2ccccn2)=C(O)c2c(ccc3ccccc23)S1(=O)=O = 25%
CN1C(C(=O)Nc2ccccn2)=C(O)c2cc(F)ccc2S1(=O)=O = 27%
Cc1ccc2c(c1)/C(=C(\O)Nc1ccccc1)C(=O)N(C)C2=O = 90%
Cc1cnc(NC(=O)C2=C(O)c3ccccc3S(=O)(=O)N2)s1 = 41%

Okay, next one:
Which inhibition reading was recorded for the compound CN1C(C(=O)Nc2ccccc2)=C(O)c2ccc3ccccc3c2S1(=O)=O ?
88%
